Biological target: Aromatase (Homo sapiens)
Sequence (P11511 whole entry): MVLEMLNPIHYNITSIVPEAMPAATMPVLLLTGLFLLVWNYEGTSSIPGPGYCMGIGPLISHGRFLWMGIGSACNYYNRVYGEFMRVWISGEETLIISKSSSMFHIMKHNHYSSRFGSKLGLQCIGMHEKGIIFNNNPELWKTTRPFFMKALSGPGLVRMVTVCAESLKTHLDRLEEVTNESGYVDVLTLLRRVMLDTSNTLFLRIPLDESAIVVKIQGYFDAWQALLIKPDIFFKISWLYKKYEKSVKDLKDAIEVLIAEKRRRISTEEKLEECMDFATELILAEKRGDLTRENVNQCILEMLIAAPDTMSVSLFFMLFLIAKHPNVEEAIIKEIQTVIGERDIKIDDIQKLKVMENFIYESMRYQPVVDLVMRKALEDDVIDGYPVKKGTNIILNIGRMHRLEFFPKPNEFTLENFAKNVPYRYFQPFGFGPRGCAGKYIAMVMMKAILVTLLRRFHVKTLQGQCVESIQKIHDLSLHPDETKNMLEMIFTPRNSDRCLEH
Test: Inhibition of human recombinant aromatase at 1 uM after 30 mins relative to control
Conditions: 0.5 h
Rule: inhibition at 1 µM of 30% or more gives label 1; anything lower gives label 0.

molecule	qualitativeLabel
COc1cc2c(cc1C(C)C)CC[C@@H]1C(C)(C)CCC[C@]21C	label 0
COc1cc2c(cc1C(C)C)C=C[C@@H]1C(C)(C)CCC[C@]21C	label 0
N#Cc1ccc(C(c2ccc(C#N)cc2)n2cncn2)cc1 [LETROZOLE]	label 1
COc1cc2c(cc1C(C)C)CC[C@H]1C(C)(C)CCC[C@]21C	label 0
COc1cc2c(cc1C(C)C)C(=O)C[C@@H]1C(C)(C)CCC[C@]21C	label 0
CC(C)c1cc(C=O)c([C@@]2(C)CCCC(C)(C)[C@@H]2C=O)cc1O	label 0

// provenance: ChEMBL document CHEMBL1142921
